Measured values drawn from paper PMC5078989 for this set.

So I've got a bunch of compounds here, and I need their EC50 values.
- System: panel of cancer cell lines
- experimental details: Cell viability (CellTiter-Glo) dose-response across cancer cell line panel;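 further: after 72 h compound incubation with CellTiter-Glo ATP readout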
- Assay type: cell-based, human
- condition notes: Homo sapiens, SF-268, SF-268
All answers are understood in nM, so give the number only.

Enquiry: So what EC50 did COCc1ccccc1NCc1ccc([C@H]2[C@@H](O)CCCc3cncn32)c(-c2ccccc2Cl)c1 [CSN5i-2] get with panel of cancer cell lines?
Return: 1880

Enquiry: How about this compound: NS(=O)(=O)OC[C@@H]1C[C@@H](n2ccc3c(N[C@H]4CCc5ccccc54)ncnc32)C[C@@H]1O [MLN4924]
Return: 472
